Assay read-out Ki; system under study: human Adenosine A3 receptor (Homo sapiens).
Sequence (P0DMS8 whole entry): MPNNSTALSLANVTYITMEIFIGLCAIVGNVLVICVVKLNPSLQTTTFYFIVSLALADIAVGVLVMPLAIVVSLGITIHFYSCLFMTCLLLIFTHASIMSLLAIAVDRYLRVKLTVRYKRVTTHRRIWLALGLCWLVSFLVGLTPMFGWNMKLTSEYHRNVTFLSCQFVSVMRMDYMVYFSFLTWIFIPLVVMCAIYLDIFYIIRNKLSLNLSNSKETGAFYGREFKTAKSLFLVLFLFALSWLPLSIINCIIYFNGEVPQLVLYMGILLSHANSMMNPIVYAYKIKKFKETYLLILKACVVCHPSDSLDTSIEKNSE

Examples from the recorded data:
N#Cc1c(-c2ccco2)nn2ccc(NCCN3CCN(Cc4ccccc4)CC3)nc12 = 923 nM
Cc1cc(-c2c(-c3cccc(C#N)c3)nn3ccc(N4CC(C(=O)O)C4)nc23)cc(Cl)n1 = 2530 nM
CC(C)(C)OC(=O)N1CCO[C@H](CNc2ccn3nc(-c4ccco4)c(C#N)c3n2)C1 = 1740 nM
Cc1cc(-c2c(-c3cccc(C#N)c3)nn3ccc(C(=O)NC45CCC(N)(CC4)C5)nc23)cc(Cl)n1 = > 1000 nM
Cc1cc(-c2c(-c3cccc(C#N)c3)nn3ccc(NC[C@H](C)O)nc23)cc(Cl)n1 = 2600 nM

Fetch value of Ki on human Adenosine A3 receptor (Homo sapiens) for Cc1cc(-c2c(-c3cccc(C#N)c3)nn3ccc(C(=O)NC(C)(C)C)nc23)cc(N)n1 . 1040 nM

GET Ki | system: human Adenosine A3 receptor (Homo sapiens) | item: Cc1cc(-c2c(-c3cccc(C#N)c3)nn3ccc(C(=O)NC(C)(C)C(C)(C)O)nc23)cc(Cl)n1 > 1000 nM

Using human Adenosine A3 receptor (Homo sapiens) as the test system, report measured Ki of Cc1cc(-c2c(-c3cccc(C#N)c3)nn3ccc(N[C@H]4C[C@@H](O)C4)nc23)cc(Cl)n1 . 1550 nM

# assay system human Adenosine A3 receptor (Homo sapiens): give Ki of Cc1cc(-c2c(-c3cccc(C#N)c3)nn3ccc(C(=O)N[C@@H]4COC[C@H]4O)nc23)cc(C)n1 > 1000 nM

Please respond with reported Ki (system human Adenosine A3 receptor (Homo sapiens)) for CC(C)(C)OC(=O)N1CCC(c2ccn3nc(-c4ccco4)c(C#N)c3n2)CC1 . > 1000 nM

// fetch Ki; item: Cc1cc(-c2c(-c3cccc(C#N)c3)nn3ccc(NC(=O)CC(C)(C)O)nc23)cc(C)n1 ; system: human Adenosine A3 receptor (Homo sapiens) > 1000 nM

Answer with Ki of CC(=O)Nc1ccn2nc(-c3cccc(C#N)c3)c(-c3cc(C)nc(Cl)c3)c2n1 measured for human Adenosine A3 receptor (Homo sapiens). > 1000 nM

Report Ki on human Adenosine A3 receptor (Homo sapiens) for this entry: Cc1cc(-c2c(-c3cccc(C#N)c3)nn3ccc(C(=O)NCC4(O)CC4)nc23)cc(Cl)n1 2310 nM

Look up human Adenosine A3 receptor (Homo sapiens) data: Ki of Cc1cccnc1CNc1ccn2nc(-c3ccco3)c(C(N)=O)c2n1 , then report it. 1010 nM
